target: FMDV 2C helicase (Foot-and-mouth disease virus serotype O, UniProt P03305); assay type: biochemical
Sequence (P03305 1108-1425 limits assumed): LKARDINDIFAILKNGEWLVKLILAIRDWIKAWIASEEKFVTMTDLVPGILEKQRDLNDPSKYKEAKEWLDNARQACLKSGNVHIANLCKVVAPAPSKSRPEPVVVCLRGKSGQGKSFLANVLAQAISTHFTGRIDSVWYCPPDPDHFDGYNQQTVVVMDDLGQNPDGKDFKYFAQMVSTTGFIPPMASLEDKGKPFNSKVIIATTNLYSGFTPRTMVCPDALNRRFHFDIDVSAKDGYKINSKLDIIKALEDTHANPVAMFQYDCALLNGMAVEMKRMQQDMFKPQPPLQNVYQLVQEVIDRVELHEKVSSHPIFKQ

molecule	inhibition type
COc1ccc2c(c1)cc1n2CCN2CCCN=C12	mixed inhibition
Oc1ccccn1	competitive inhibition
Sc1cnn[nH]1 [Compound C2, 1H-1,2,3-triazole-5-thiolate]	competitive inhibition
Cc1cccc[n+]1[O-] [Compound C1, 2-methylpyridine 1-oxide]	mixed inhibition

----------
Below, each entry is listed alongside its reported log10(CC50).
assay: in vitro; settings: hamster, CC50
Scale type: logarithmic (base 10). Underlying CC50 unit: µM.

compound	log10(CC50)
O=C1C=CC2(C=C1)OC(=O)c1ccccc1O2	0.48
Oc1ccccn1	2.93

Field log10(CC50) (entry COc1ccc2c(c1)cc1n2CCN2CCCN=C12 ) reads 2.45

Lookup result for COc1cccc2c1NC(=O)C(Cl)(Cl)C2=O ; measured log10(CC50): 2.10

The reported value for Sc1cnn[nH]1 [Compound C2, 1H-1,2,3-triazole-5-thiolate] in terms of log10(CC50) is 3.12

----------
assay: in vitro; conditions: hamster
property label: viability at 500 µM

Below, each entry is followed by its recorded viability at 500 µM result.
compound	viability at 500 µM
Sc1cnn[nH]1 [Compound C2, 1H-1,2,3-triazole-5-thiolate]	> 50%
Oc1ccccn1	> 50%

Moving on to the next compound.
Form field viability at 500 µM, entry Cc1cccc[n+]1[O-] [Compound C1, 2-methylpyridine 1-oxide] : > 50%
